assay_text: NCI Yeast Anticancer Drug Screen. Data for the cln2 rad14 strain (AID 165);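 note: 0% = growth equal to vehicle treated cultures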
settings: S. cerevisiae cln2 rad14 strain, at 50.0 µM, hits give high values
This is part of a sample that, as a whole, favours compounds with a hit. Of some 79,000 tested, about 15% had one in any assay.

# compound, growth inhibition / %
measured = [
    ("Cc1nc2ccccc2nc1C1=C(O)c2ccccc2CC1=O", -71.2),
    ("Nc1nc(N)nc(C2C=CCCC2)n1 (stereo not drawn)", -32.6),
    ("NC(=O)c1c[n+]([O-])ccc1[N+](=O)[O-]", 28.1),
]

* * *

assay_text: NCI Yeast Anticancer Drug Screen. Data for the mec2-1 strain (AID 157)
settings: S. cerevisiae mec2-1 strain, at 50.0 µM, hits give high values
Compounds without any hit were thinned out: in the full panel of roughly 79,000, 15% have a hit.
// reported growth inhibition for each item listed

# compound, growth inhibition, %
records = [
    ("Cc1c(-c2ccc3c(c2)OCO3)sc(N)c1C#N", -15.5),
    ("NC(=O)c1ncnc2nc[nH]c12", -42.5),
    ("O=C(O)C(Cc1ccccc1)c1ccc(Cl)cc1 (stereo unspecified)", 27.3),
    ("O=C1c2ccccc2C(O)(C#Cc2ccccc2)c2c1c(-c1ccccc1)c1ccccc1c2-c1ccccc1 (stereo unspecified)", 6.15),
    ("N#CCc1c(Cl)ccc(Cl)c1Cl", 45.6),
    ("S=c1nc(-c2ccnc(-c3nc(=S)[nH][nH]3)c2)[nH][nH]1", -18.4),
]
